Test system: K4 kissing-loop RNA reporter
Assay: apparent KD of K4 kissing-loop reporter; higher = weaker reporter binding
Conditions: Eterna round: R107; input ligand: tryptophan 2.4 mM
Label scheme for apparent KD of K4 kissing-loop reporter: lower than 400 nM is 0, 400 nM and above is 1.

Could you please find out whether AGCAUUUUCAGAAGGAGCGUGAAUUAUUCUUAAUUAUAUUAUACGAGUGAUGUUCGUGUUUCACAGGUAGGUCGCUGAUAUAGCA [JR_SSArginiB_Sub004] has apparent KD of K4 kissing-loop reporter that meets 400 nM or exceeds it? 0

Entry GUAGUUGCGCAAGGAUAUUAGUUAAGUGAUGUUUGAUUCGGUAUUGUUUACGUACACUGACCCGAUUAAGAAGGUGCGGGCAGCG [theeternabot_exclusion_KL_FMN_B_50] please 0

Now try GUAGGAUGAGGAGGAGGAUGAAUUACUGAAGGAGCGCAUAUUUUUGCAGGUAGGUCGCGGUAAAGAAGUAUAGUGAUGUUAUAUA [SSArgA.J] . 0

Same question for AAGAGGUAGGCGGCCGCCACUAGUUGUGAACACAUACGAGCCAGUGAUGUUGGUAUGGUGGGCGGUAGGACCGGGCCUACCUGAA [Exclusion - Tryptophan B (Freestyle 18)] please. 1

Entry UGACAUUGCUCAGAUACCAGACCUGAGGAUCACCCGGGUGCCAAACGUACAAUAAUAAAGGUCCCUUGGCAGCUGAGCAAUGUCU [TheoBX 14] please 0

What about CGCAGUGAUGUUGCGAGUUUAUUCAGGGAAGGAGCGCCACAGAUGGCAGGUAGGUCGCCCACGCAGUGAUGUUGUGUAUUCGGGU [Exclusion Arginine A GF 3] ? 0

// same read-out, input: UUUUGCGCGUACGAUACCAGUAUCUGUAAGAGUGAUGUUCAGCGCUGAAGACAGCAGCGAUACCCUUGGCAGCGUUACAUGCUAG [theeternabot_sameState_KL_Theo_B_22] 1

Would you mind doing UGAUACCAGACGGCCGCCACUUCCGUAAGUCAAAGACUUGCCAAGGGAAUCGUCCAGUGAUGUUGGAGGACCGGGUCUGGUAUCU [FiskerMod 5 - Jieux - Exclusion - Tryptophan B] as well? 1

Next entry: UUGAGCCGGACUCAAGUCCGGCUCUGCGAGCGAGGACCGGUACGGCCGCCACUCGGUGCAGUGAUGUUGCAUGGCCGCAAGGCCG [#2 Exclusion - Tryptophan A Attempt #13 (HarryS)] 1

Thanks! And AACAGCAAUGCGGCCGCCACUUCGAGUUCAGUGAUGUUGAAAGAAUUAAAUAAAGAUCCCAAGAGGAGGACCGGGCAGUGCUGUU [Default title] ? 1

Same lookup for GCGCGUCAUGUCAGCGGUGACUACGUCGAUACCAGCAGGGAAACCUGCCCUUGGCAGCGACGCGCUGGAGUGAUGUUCCGACGGA [#2 Exclusion - Theophylline A Attempt #6 (HarryS)] , please. 1

====

System: K4 kissing-loop RNA reporter;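 further: bound reporter read as fluorescence of individual clusters on recovered sequencing chips by microscopy, with normalized cluster intensities fitted with a binding model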
Assay: apparent KD of K4 kissing-loop reporter; higher = weaker reporter binding
Settings: Eterna round: R107; input ligand: FMN 200 uM
For each record, write down the corresponding apparent KD of K4 kissing-loop reporter.
State just the number; it will be interpreted in nM.

Record lookup: for K4 kissing-loop RNA reporter, what apparent KD of K4 kissing-loop reporter belongs to UGACUGGACUGAAGGAGCGCGAAACUCCUAGUGAUGUUAGGACAACGAGACAAAGUCUCGACGCAGGUAGGUCGCAGUCUAGUCU ? 148

What about AGACUACCACACUGUCAAUAGACAGUGAAUUAGGAUAUGCUGAUAAGCAGAAGGAGUGAUGUUCCGAGGUAGUCAAUAAAAUAAU [FmnAX 13 U30+G66] ? 220

What do we get for UGGGAUUUGUCAGGAUAUGAGUGCAGUGAUGUUGCACUUAAUAAAGUACAUAGGCCCUGCUGGCACUCAGAAGGGACGGUGAUGC [Lalasobeer] ? 122

Continue with GGAUUUGAGUGAUGUUUAAAACGAGUGUCCAAGGAUAUUGCCCAAACAAGAAGGUGGGCAUGCUUUUGCGAUAAUCAACGGAGAC [theeternabot_exclusion_KL_FMN_A_9] 408

Item: AGUAAUGAGUGAUGUUCAAAUAGUAAGGAUACCAGUAAUUCAAAAUGCCCUUGGCAGCUUAACGCUACCAAUAGAUAAAUAAUGG [Theophilline A V2 (+2A)] 134

Also AUAAACUUGCAGUGAUGUUGCAAGUGAGACUAGGAUAUCAGGAAGCUGAGAAGGAGUCAUCUCCUUCAAACAUCACUAUGAAGGA [whbob_SS_FMNA__2th178] ? 403

Lookup AUUUUUUUAUCAGGAUAUUAGUGAUGGUUUGUUUUGUUAGUGAUGUUGAUAUUUGUUUUAUGUAUUUAAGAAGGGAUUGAGAUGU [seesullin] 67

Similarly, CAGCAGAGUGAUGUUCUGCUUACUGCGGAUACCAGCUUUGCCAGAGGCCCUUGGCAGCCGCACGGCUCAGUGAUGUUGGGUCACG [Same State Theophylline A GF 13] ? 296

Cool, now AUCGUUGUCUGAGGAUAUCGGUUAACUGUAGUGAUGUUACAGAAAAUUCAUAUAAUAUUUUCUAUUCGAGAAGGCAGACUACGUA [JR_ExcFMNB_Sub018] 205

Follow-up item: CGUACGGUUUCUUUCUUUCCGUACGAGUGCCGAGGACCGGUACGGCCGCCACUCGCUACAGCCUAGUGAUGUUAGGAACGUGUUA 87.2

Next record, please: CCGAAGAACCAGUGAUGUUGGUUGACUAGACAGGAUAUGAGCAACAUCAGAAGGGUCUGGCUUCGGGAGUAGGUCGCGCUGACCC [Diarrebi] 482

What about UAGAGAUCGAGAAGGAGCGAGAAAGCUAGUACAUAUGUACUAGCAAAGCAGUGAUGUUGCACUCAGGUAGGUCGCUCGAUCUCAU [AK1.1 SS Arginine B] ? 337

====

Tested on: MS2 coat protein
Experiment: apparent KD of MS2 coat protein; higher = weaker reporter binding
Settings: Eterna round: R107; input ligand: theophylline 20 uM
testReadout: apparent KD of MS2 coat protein (nM)
Form entry: value (nM) — number only.

Need apparent KD of MS2 coat protein of AGACAUGAGGAUCACCCAUGUAGUAUGGAUACCAGAUGUAGAUUAGUCCCUUGGCAGCUGUGGUGAAGUGAUGCAUUGCUCCUAG [Exclusion - Theophylline A (Freestyle 1)] , thanks. 36.4

Moving on to the next sequence: UGUAUGUGAUCUGAUACCAGAGUGACGCGAAAGCGAACCUGAGGAUCACCCUGGUAAUAACUCCCUUGGCAGCAGAUCGCAUACU 44.3

Ok, now UCGAAUGCGGCGGCCGCCACUCGCGGAUAACGAUAGCUUAACAUGAGGAUCACCCAUGUGUCAUGGAGGACCGGGCCCAUACCGU [azamullin] 36.1

Check GGCUAACAUGAGGAUCACCCAUGUAUUGAUACCAGUAUUUGAAAAUACCCUUGGCAGCAAAUGAAGAGCGUAGCAGGGUCGAUUA [theeternabot_sameState_MS2_Theo_A_7] too. 17

Again, but for AUAACAUGAGGAUCACCCAUGUAAGCAGAUACCAGCUAGGAAACUAGCCCUUGGCAGCUGCAAGGUGAUCCUAAUGCAGCUGCAA [(M1)-(M2)-(T1)-(T2)-(M)'-(T)'_Design3] 241

# iterate: GGAGGCCUUAGGGAUACCAGCUAAGUUGAGUACAUGAGGAUCACCCAUGUGUUCCCAGAGAGCCCUUGGCAGCCCUCAUCCGUUC [theeternabot_sameState_MS2_Theo_B_7] 13.9

Would you kindly repeat that for UAUCUAACGAAGGAUACCAGUACAUGAGAGUACAUGAGGAUCACCCAUGUUAGAUACGGGUACCCUUGGCAGCCUCACCUACACC [theeternabot_sameState_MS2_Theo_B_11] ? 71.6

Entry to check: GCGGGACUUUCGGCCGCCACUGAGAGAGUCGUGUGAACAUGAGGAUCACCCAUGUAAUAUAUAUACAGGACCGGGAGGGUUGCGC [4.Q] 17.2

Follow-up item: AUAACAUGAGGAUCACCCAUGUAAGCAGAUACCAGCUAGGAAACUAGCCCUUGGCAGCUGCAUUCCUCAUGUAGGUAUCUGCUAA [(M1)-(M2)-(T1)-(T2)-(M)'-(T)'_Design4] 22.1

Input AUUGUGAAGUCGGCCGCCACUGCAUAGUUUAACCUCUUUUAACAUGAGGAUCACCCAUGUAAUGACAGGACCGGGACAAUAGUAA [JR_SSTryptoB_Sub022] 92.3

For AGUGUUAUAACUGAUACCAGACUUGCGCUUAAACAUGAGGAUCACCCAUGUAAAAUGGUUGUCCCUUGGCAGCAGAAAAUACACA [JR_SSTheophyB_Sub006] then? 98

How about this sequence: GGGUGGUAGGCGGCCGCCACUGAUUUUUAUUUAUAGAUGACAUGAGGAUCACCCAUGUUUAUAUGCAGGACCGGGCCUGUUGUGG [aaaQ] 22.5

Same thing, different sequence: UUCAGACAUGAGGAUCACCCAUGUACUGAAGGAGCGGAUAAAUAUCCAGGUAGGUCGCAGUAUUGAGGGUCUACUUCCAGUCUUA [Rexeesqu] 12.9

# iterate: CAGGCUAGGACGGCCGCCACUGUGGCUACGGUACAUGAGGAUCACCCAUGUUUGUGGUUGAUCUACAGGACCGGGUCCUGACACG [Letisoonri] 134

How about UACUUGCUGACGGCCGCCACUAGAACAUGAGGAUCACCCAUGUAUCUAGUGGCAAUCCUCAUGACUAGGACCGGGUCAGCAAGAU [(Trp1)-(Ms2)-(T)'-(M)'-(Trp2)_Design1] ? 10.4

Queued: AGCUCGCAUCCUCUAGCGUCAAAGACGCCUCGAGGACCGGUACGGCCGCCACUCGAUAUGAGGAUCACCCAUAUCAAAGCGAGCA [TrypAX 2 #SwitchBubble #AlternativeMS2 #MS2Late #CuTurnoff] 59.5

# iterate: CAGUCAGUCAGUCAAUGAGUGAGGCAUGAAGGAGCGUGGGAAACCACAGGUAGGUCGCAUGCGAAACAUGAGGAUCACCCAUGUU [SSArg A #3] 42.5

What do we get for UAGAGCCAGUCGGCCGCCACUCUCCAUAUGUGAGCCUUUAAGUUCUACAUGAGGAUCACCCAUGUGAGGACCGGGACCGAAUCUA [theeternabot_exclusion_MS2_Trp_B_18] ? 80.3

Now the same for UGAUCCUAGACUGAUACCAGUCAUGAGUACAUGAGGAUCACCCAUGUCCAGGGACUCAAUGACCCUUGGCAGCAGAACCUAGUUC [Theo B SS t7] 414

Would you mind doing UAUCGUCAGACGGCCGCCACUAGAACAUGAGGAUCACCCAUGUACGGCCGCCCGGUAUGGGUGUCUAGGACCGGGUCUGACGAAU [(Trp1)-(Ms2)-(T)'-(M)'-(Trp2)_Design21] as well? 37.8

What do we get for ACCUGUACGAAAAGUGCAGGACACGGAAUACGAGGACCGGUACGGCCGCCACUCGGAUAAAACCUGAGGAUCACCCUGGUCCGUG [TrypAS 14 #AlternativeMS2 #Zipper #StaticStem] ? 43.5

Please give the result for AAUGUAUGGCACAUGAGGAUCACCCAUGUGCGAGGACCGGUACGGCCGCCACUCGGUCCUGGGAUCUUACAACUAUACAUUAAUG [XTryp A #20] too. 17.2

Item: UGUAUGGACUGAAGGAGCGCCUCAAAAUAGCAUGAGGAACACCCAUGCAAGGCGAAAGCCGGGCAGGUAGGUCGCAGUCCAUACU [ArgBX 3] 32.2

Source of measurements: the supplement of paper PMC9170038
